Test system: OVCAR-3 ovarian
Test protocol: NCI tumour cell line growth inhibition, 48 h
Listing of recorded GI50 by entry.

In the examples that follow, each entry is paired with its recorded GI50.
>  <Compound>
O=C(Nc1cccc(-n2cc(-c3ccncc3)c(-c3cc(O)cc(Cl)c3)n2)c1)c1cc(C(F)(F)F)cc(C(F)(F)F)c1

>  <Result>
3.28 µM

$$$$
>  <Compound>
O=C1OC(C(O)CO)C(O)=C1O (stereo not given)

>  <Result>
1560 µM

$$$$
>  <Compound>
COC(=O)[C@H]1CCCN1C(=O)[C@H]1CCCN1C(=O)[C@@H](Cc1c[nH]c2ccccc12)NC(=S)Nc1cc(C(F)(F)F)cc(C(F)(F)F)c1

>  <Result>
1.69 µM

$$$$
>  <Compound>
c1ccc2c(c1)Nc1ccncc1S2

>  <Result>
18.6 µM

$$$$

Query block: I would be grateful if you could share the reported GI50 for COc1ccc(/C=C(\C#N)n2nnc3c(F)cccc32)cc1 .
Result block: 0.283 µM
